# systemTested: Voltage-gated potassium channel subunit beta-2 (Rattus norvegicus)
# procedureText: KvBeta enzyme negative modulators, primary screen, biochemical, NADPH fluorescence (AID 622);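 note: slope of raw intensity against log time taken from 70 to 1610 s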
# measurementParameters: recombinant KvBeta, 4-cyanobenzaldehyde reduction, at 10 µM, stronger effect = higher value
Recorded fluorescence slope values for a group of compounds are listed next.
Keep the answer to the number alone.

Some entries whose results are on file:
COC(=O)[C@H]1CCCN1C(=O)Nc1cccc(Oc2c(F)c(F)c(F)c(F)c2F)c1 :: -0.396
COCCNC(=O)C(c1ccc(O)cc1)N(Cc1ccco1)C(=O)CCC(=O)Nc1nccs1 (stereo unspecified) :: -0.499
Cc1noc(C(=O)Nc2ccc3c(c2)OCO3)c1Cl :: -0.419
Nc1nc(-n2cnnc2)nn1-c1ccccc1 :: -0.366
COc1ccc(CCn2c(=N)c(C(=O)NCc3ccco3)cc3c(=O)n4ccccc4nc32)cc1OC :: -0.507
CCOCCOc1nc2c(c(=O)n(C)c(=O)n2C)n1Cc1ccc(C)cc1 :: -0.46
C=CCSC1=C(C#N)C(c2ccccc2OCC)CC(=O)N1 (stereo unspecified) :: -0.306
CCCCC(=O)c1c(C)cc(C)[nH]c1=O :: -0.482

Q: Which fluorescence slope is reported with Voltage-gated potassium channel subunit beta-2 (Rattus norvegicus) for this entry: "CCOC(=O)C(CCc1nnc(N)s1)C(=O)OCC" ?
A: -0.474

Q: Which fluorescence slope is reported with Voltage-gated potassium channel subunit beta-2 (Rattus norvegicus) for this entry: O=C(O)C1CC=CCC1C(=O)Nc1cc(Cl)ccc1Cl (stereo unspecified) ?
A: -0.505

Q: Which fluorescence slope is reported with Voltage-gated potassium channel subunit beta-2 (Rattus norvegicus) for this entry: CCOc1ccc(N2C(=O)CC(N)C2=O)cc1 (stereo unspecified) ?
A: -0.462
